Each item that follows carries a reported inhibition at 1 µM.
# measured-on: UniProt Q07343
# Sequence (Q07343 whole entry, species assumed): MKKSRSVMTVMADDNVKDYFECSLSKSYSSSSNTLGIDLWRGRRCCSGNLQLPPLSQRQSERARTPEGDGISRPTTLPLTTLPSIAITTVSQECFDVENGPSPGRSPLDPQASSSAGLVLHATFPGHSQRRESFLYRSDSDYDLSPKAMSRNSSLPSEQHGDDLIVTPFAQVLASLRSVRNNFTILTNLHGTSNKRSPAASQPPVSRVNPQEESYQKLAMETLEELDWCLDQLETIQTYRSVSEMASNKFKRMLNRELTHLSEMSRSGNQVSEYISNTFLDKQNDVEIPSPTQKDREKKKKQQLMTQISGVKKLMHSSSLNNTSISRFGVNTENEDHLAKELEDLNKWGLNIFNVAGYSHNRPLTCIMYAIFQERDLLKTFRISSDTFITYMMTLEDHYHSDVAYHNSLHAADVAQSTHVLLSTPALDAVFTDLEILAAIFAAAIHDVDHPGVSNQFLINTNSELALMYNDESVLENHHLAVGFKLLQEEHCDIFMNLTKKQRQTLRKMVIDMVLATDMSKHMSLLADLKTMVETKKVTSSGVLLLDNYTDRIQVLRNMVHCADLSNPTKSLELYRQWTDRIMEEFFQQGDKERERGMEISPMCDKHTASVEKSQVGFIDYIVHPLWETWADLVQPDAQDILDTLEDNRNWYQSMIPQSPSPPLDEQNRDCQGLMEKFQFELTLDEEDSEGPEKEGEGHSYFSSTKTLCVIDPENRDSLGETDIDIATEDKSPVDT
# measurement-protocol: Scintillation Proximity Assay (SPA) of PDE4B enzyme activity ([H3]-cAMP cleavage)
# Type: biochemical
# measurement-context: test substance 1 μM; one-hour incubation with [H3]-cAMP at 30° C.
result-type: inhibition at 1 µM (%)

molecule="Cc1cn(C)nc1CN(C)C(=O)c1cccc(C2CCN(c3nc4c(c(NC5CCOCC5)n3)[S+]([O-])CC4)CC2)c1 (stereo not shown)" result_type="inhibition at 1 µM" recorded_value=93
molecule="Cc1oc(C2CCN(c3nc4c(c(NC5(CO)CC5)n3)[S+]([O-])CC4)CC2)nc1-c1ccccc1 (stereo not shown)" result_type="inhibition at 1 µM" recorded_value=96
molecule="[O-][S+]1CCc2nc(N3CCC(Oc4ccc5c(c4)CCNCC5)CC3)nc(NC3CCOCC3)c21 (stereo not shown)" result_type="inhibition at 1 µM" recorded_value=91
molecule="Cc1oc(C2CCN(c3nc4c(c(NC5CCOCC5)n3)[S+]([O-])CC4)CC2)nc1-c1ccccc1 (stereo not shown)" result_type="inhibition at 1 µM" recorded_value=95
